Experiment: Cytotoxicity against human HCC2998 cells by SRB assay
Assay type: functional
Conditions: HCC 2998
Output: class label from GI50. Mapping: class A (below 60 nM), class B (60 nM to below 2000 nM), class C (2000 nM or more)

Band for the recorded GI50 of `COc1ccc(/C=C/c2cc(OC)cc(OC)c2/C=C(\C#N)c2ccc(OC)cc2)cc1` ?
class C

Band for the recorded GI50 of `COc1ccc(/C=C(/C#N)c2cc(OC)c(OC)c(OC)c2)cc1O` ?
class A

Band for the recorded GI50 of `COc1ccc(/C=C(\C#N)c2ccc(OC)c(OC)c2)cc1O` ?
class B

Band for the recorded GI50 of `COc1ccc(/C=C(\C#N)c2cc(OC)c(OC)c(OC)c2)cc1` ?
class A

Band for the recorded GI50 of `COc1ccc(/C=C(\C#N)c2cc(OC)c(OC)c(OC)c2)cc1O` ?
class A

Band for the recorded GI50 of `COc1ccc(/C=C/c2cc(OC)cc(OC)c2/C=C(\C#N)c2ccccc2OC)cc1` ?
class C

Band for the recorded GI50 of `COc1cc(/C=C(\C#N)c2cc(OC)c(OC)c(OC)c2)cc(OC)c1` ?
class C

Band for the recorded GI50 of `COc1ccc(/C=C(\C#N)c2cc(OC)cc(OC)c2)cc1` ?
class B

Band for the recorded GI50 of `COc1ccc(/C=C(/C#N)c2ccc(OC)c(OC)c2)cc1O` ?
class B

Band for the recorded GI50 of `COc1ccc(/C=C\c2cc(OC)c(OC)c(OC)c2)cc1O` ?
class B
